# Test system: Es-2 sulfatase
# experimental.details: Effect of enzyme inhibitors on sulfatase activity (protocol as for ions)
# Type: biochemical, Streptomyces sp. T109-3
# test.context: 1 mM of an enzyme inhibitor; p-nitrophenyl sulfate 4 mM; 30 minutes at 37°C
reported.endpoint: % Inhibit. (%)
Respond with the bare value in %.

Guide cases for % Inhibit., answers given:
molecule: O=S(=O)(F)Cc1ccccc1 [Phenylmethanesulfonyl fluoride]
unit.name: %
% Inhibit.: 81

molecule: c1cnc2c(c1)ccc1cccnc12 [1,10-Phenanthroline]
unit.name: %
% Inhibit.: 60

molecule: O[C@H](CS)[C@H](O)CS (racemic) [Dithiothreitol]
unit.name: %
% Inhibit.: 34

molecule: O=C(O)c1cc[c]([Hg][Cl])cc1 [p-Chloromercuribenzoic acid]
unit.name: %
% Inhibit.: 78

molecule: N[C@@H](CS)C(=O)O [Cysteine]
unit.name: %
% Inhibit.: 18

molecule: CCN1C(=O)C=CC1=O [N-Ethylmaleimide]
unit.name: %
% Inhibit.: 35

molecule: O=C(O)CC(O)(CC(=O)O)C(=O)O [Citrate]
unit.name: %
% Inhibit.: 87

molecule: c1c[nH]cn1 [Imidazole]
unit.name: %
% Inhibit.: 14

Please turn your attention to the following entry.
Give the measured % Inhibit. of OCCS [2-Mercaptoethanol] .
22
